From: patent US20110318339A1

Assignment: determine reported ELISA absorbance at 450 nm for the given binders.
Molecular target: recombinant human DLL4 (Cat# 1506-D4/CF, R&D Systems) (human) (UniProt Q9NR61)
Assay: ELISA, DLL4 coated, Fab 12.5 nM
Give a bare numeral; the unit A450 is implied.

## Task Assign ELISA absorbance at 450 nm to the following record: Fab VH5-51_IGHD5-18*01>3_IGHJ4*01 G100K/G104T G24T/S28R/G35V Y105H & V3-4_IGLJ1*01 (Fab, V domains shown) VH: EVQLVQSGAEVKKPGESLKISCKTSGYRFTSYWIVWVRQMPGKGLEWMGIIYPGDSDTRYSPSFQGQVTISADKSISTAYLQWSSLKASDTAMYYCARRKYSYTHDYFDYWGQGTLVTVSS VL: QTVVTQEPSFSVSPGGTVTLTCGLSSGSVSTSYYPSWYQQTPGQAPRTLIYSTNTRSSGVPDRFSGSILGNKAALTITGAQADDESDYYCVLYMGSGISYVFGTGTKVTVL
## Result 0.21

## Task Assign ELISA absorbance at 450 nm to the following record: Fab VH5-51_IGHD5-18*01>3_IGHJ4*01 G100K/G104T G24T/S28R/G35V Y105N & V3-4_IGLJ1*01 (Fab, V domains shown) VH: EVQLVQSGAEVKKPGESLKISCKTSGYRFTSYWIVWVRQMPGKGLEWMGIIYPGDSDTRYSPSFQGQVTISADKSISTAYLQWSSLKASDTAMYYCARRKYSYTNDYFDYWGQGTLVTVSS VL: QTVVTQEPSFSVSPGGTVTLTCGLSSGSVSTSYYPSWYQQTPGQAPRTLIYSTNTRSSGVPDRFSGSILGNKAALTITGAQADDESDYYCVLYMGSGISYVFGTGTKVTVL
## Result 0.21
